Measured selectivity ratio of individual entries
ASSAY_PROCEDURE: Selectivity index, ratio of IC50 for mouse J774 cells to MIC50 for Mycobacterium tuberculosis mc2 6230
Assay type: toxicity
MEASUREMENT_SETUP: read-out: Selectivity Index

                        input_smiles  result
0  Cc1ncc([N+](=O)[O-])n1CCCCN1CCCC1     > 8

GET /value?item= Cc1ncc([N+](=O)[O-])n1CCCCBr &field=selectivity ratio returns 3.4

GET /value?item= Cc1ncc([N+](=O)[O-])n1CCCCCN1CCN(c2ccnc3cc(Cl)ccc23)CC1 &field=selectivity ratio returns 5.6

GET /value?item= Cc1ncc([N+](=O)[O-])n1CCCN1CCCC1 &field=selectivity ratio returns > 5.2

GET /value?item= Cc1ncc([N+](=O)[O-])n1CCCCCCBr &field=selectivity ratio returns 14.1

GET /value?item= Cc1ncc([N+](=O)[O-])n1CCCCCCN1CCN(c2ccnc3cc(Cl)ccc23)CC1 &field=selectivity ratio returns < 0.66

GET /value?item= Cc1ncc([N+](=O)[O-])n1CCCCCN1CCCC1 &field=selectivity ratio returns > 8.1

GET /value?item= Cc1ncc([N+](=O)[O-])n1CCCCN1CCN(c2ccnc3cc(Cl)ccc23)CC1 &field=selectivity ratio returns > 45.3

GET /value?item= Cc1ncc([N+](=O)[O-])n1CCCCCBr &field=selectivity ratio returns 6.2

GET /value?item= Cc1ncc([N+](=O)[O-])n1CCCCN1CCOCC1 &field=selectivity ratio returns > 4.3

GET /value?item= Cc1ncc([N+](=O)[O-])n1CCCCN1CCCCC1 &field=selectivity ratio returns > 5.2

GET /value?item= Cc1ncc([N+](=O)[O-])n1CCCN1CCN(c2ccnc3cc(Cl)ccc23)CC1 &field=selectivity ratio returns > 26.3

GET /value?item= Cc1ncc([N+](=O)[O-])n1CCCBr &field=selectivity ratio returns 10.3

GET /value?item= Cc1ncc([N+](=O)[O-])n1CCCCCN1CCCCC1 &field=selectivity ratio returns > 2

GET /value?item= Cc1ncc([N+](=O)[O-])n1CCCN1CCOCC1 &field=selectivity ratio returns > 5.5

* * *

Tested on: J774
ASSAY_PROCEDURE: Cytotoxicity against mouse J774 cells assessed as decrease in cell viability after 24 hrs by resazurin based assay
MEASUREMENT_SETUP: J774, 24 h
Measured IC50 of individual entries

Some compounds with recorded IC50:
>>> df
                         input_smiles  measurement_kind       result
0       Cc1ncc([N+](=O)[O-])n1CCCCCBr              IC50     83 µg/mL
1        Cc1ncc([N+](=O)[O-])n1CCCCBr              IC50     61 µg/mL
2  Cc1ncc([N+](=O)[O-])n1CCCCN1CCOCC1              IC50  > 100 µg/mL
3   Cc1ncc([N+](=O)[O-])n1CCCN1CCCCC1              IC50  > 100 µg/mL
4      Cc1ncc([N+](=O)[O-])n1CCCCCCBr              IC50   69.9 µg/mL
5         Cc1ncc([N+](=O)[O-])n1CCCBr              IC50   54.8 µg/mL

Continue with the compound presented below.
GET /value?item= Cc1ncc([N+](=O)[O-])n1CCCCCCN1CCN(c2ccnc3cc(Cl)ccc23)CC1 &field=IC50 returns < 0.8 µg/mL
